# Test system: 485176-168-R4-J1-PDC complex spheroid growth;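 also: spheroids exposed to compounds for seven days before readout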
# Experiment Description: Anticancer human tumor 485176-168-R4-J1-PDC patient-derived pancreatic adenocarcinoma cell line growth inhibition [RAS]; active = viability on the fitted dose curve at most 10% of control; inactive = the rest
# Study Conditions: compound 10 µM
Possible outcomes: Yes (active), No (inactive)

>>> cat("CC(C)NCC(C(=O)N1CCN(c2ncnc3c2C(C)CC3O)CC1)c1ccc(Cl)cc1 (configuration not stated)")
"No"
>>> cat("CC1(O)CCCC1n1c(=O)c(C(F)F)cc2cnc(NC3CCN(S(C)(=O)=O)CC3)nc21 (configuration not stated)")
"Yes"
>>> cat("CC(Nc1ccc2c(c1)OCCn1cc(N3C(=O)OCC3C(F)F)nc1-2)C(N)=O (configuration not stated)")
"No"
>>> cat("C[C@@H](NC(=O)c1ncnc(N)c1Cl)c1ncc(C(=O)Nc2cc(C(F)(F)F)c(Cl)cn2)s1")
"No"
>>> cat("CCC(CC)c1cc(NC2CCC(N)C2)n2nccc2n1 (configuration not stated)")
"Yes"
>>> cat("NC1c2ccccc2OC12CCN(c1cnc3c(N4CCCc5ncccc54)n[nH]c3n1)CC2 (configuration not stated)")
"No"
>>> cat("C#Cc1c(F)ccc2cc(O)cc(-c3ncc4c(N5CC6CCC(C5)N6)nc(OCC56CCCN5CC(F)C6)nc4c3F)c12 (configuration not stated)")
"No"
